Just for reference, ChEMBL document CHEMBL1143081 is where these values come from.

Target: Sodium-dependent serotonin transporter (Homo sapiens, UniProt P31645)
Sequence (P31645 whole entry): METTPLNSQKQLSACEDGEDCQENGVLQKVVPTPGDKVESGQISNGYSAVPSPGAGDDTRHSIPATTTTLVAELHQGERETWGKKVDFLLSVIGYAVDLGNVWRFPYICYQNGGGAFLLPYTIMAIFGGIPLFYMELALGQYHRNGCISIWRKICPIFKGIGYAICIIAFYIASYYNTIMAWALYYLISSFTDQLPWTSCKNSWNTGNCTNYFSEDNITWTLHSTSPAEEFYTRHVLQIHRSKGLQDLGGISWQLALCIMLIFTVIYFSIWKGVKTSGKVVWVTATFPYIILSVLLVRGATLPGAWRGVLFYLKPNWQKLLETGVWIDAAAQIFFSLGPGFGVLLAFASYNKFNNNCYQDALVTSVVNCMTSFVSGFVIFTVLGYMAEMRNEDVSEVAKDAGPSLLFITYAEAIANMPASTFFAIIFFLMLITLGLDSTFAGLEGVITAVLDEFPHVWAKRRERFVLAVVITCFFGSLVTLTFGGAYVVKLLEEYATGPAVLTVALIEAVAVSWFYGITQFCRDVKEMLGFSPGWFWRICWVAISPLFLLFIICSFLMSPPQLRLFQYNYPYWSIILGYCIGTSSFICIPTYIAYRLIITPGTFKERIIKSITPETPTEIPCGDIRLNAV
measured.quantity: pIC50
The read-out pIC50 is expressed as -log10 of concentration in moles per litre.

Here are 4 molecules together with their reported answers.
Record for NC[C@@H]1C[C@@]1(C(=O)N1CCOc2ccccc21)c1ccc2c(c1)OCO2 under target or system Sodium-dependent serotonin transporter (Homo sapiens, UniProt P31645): pIC50 reported as 6.49

Short answer on Sodium-dependent serotonin transporter (Homo sapiens, UniProt P31645) for C=CCN(CCC)C(=O)[C@@]1(c2ccc3c(c2)CCO3)C[C@H]1CN , pIC50: 5.77

Fill in: Sodium-dependent serotonin transporter (Homo sapiens, UniProt P31645) pIC50 for C=C(F)CN(CC)C(=O)[C@@]1(c2ccc3c(c2)OCCO3)C[C@H]1CN = 6.95

Value sought: pIC50, system Sodium-dependent serotonin transporter (Homo sapiens, UniProt P31645), item C=CCN(CC=C)C(=O)[C@@]1(c2ccc3c(c2)OCCO3)C[C@H]1CN . Result: 7.49

Now examine the next entry.
Short answer on Sodium-dependent serotonin transporter (Homo sapiens, UniProt P31645) for C=CCN(CC)C(=O)[C@@]1(c2ccc3c(c2)CCO3)C[C@H]1CN , pIC50: 6.37
